System tested: UGT1A4 (Homo sapiens, UniProt P22310)
Sequence (P22310 29-534): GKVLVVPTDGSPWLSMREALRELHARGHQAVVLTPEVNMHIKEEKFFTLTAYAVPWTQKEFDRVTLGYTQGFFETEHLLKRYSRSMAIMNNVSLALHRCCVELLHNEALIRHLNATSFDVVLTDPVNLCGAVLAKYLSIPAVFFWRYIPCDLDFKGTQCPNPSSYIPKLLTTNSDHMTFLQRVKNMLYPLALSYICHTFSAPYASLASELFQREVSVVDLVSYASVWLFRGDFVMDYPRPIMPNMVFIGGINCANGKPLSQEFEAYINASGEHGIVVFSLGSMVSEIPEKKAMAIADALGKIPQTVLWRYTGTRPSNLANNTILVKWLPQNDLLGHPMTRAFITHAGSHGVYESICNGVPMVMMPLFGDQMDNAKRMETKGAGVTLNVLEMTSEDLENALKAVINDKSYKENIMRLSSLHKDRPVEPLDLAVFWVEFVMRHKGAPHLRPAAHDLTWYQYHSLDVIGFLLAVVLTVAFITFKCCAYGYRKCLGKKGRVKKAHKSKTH
Assay name: Trifluoperazine glucuronidation by recombinant UGT1A4
Type: biochemical
Run parameters: human, pH 7.5, probe trifluoperazine
Result type: inhibition at 20 mM

Record for "O=C(O)[C@@H](O)[C@H]1OC(=O)[C@H](O)[C@H]1O" under target or system UGT1A4 (Homo sapiens, UniProt P22310): inhibition at 20 mM reported as 18%
